Recorded apparent KD of K4 kissing-loop reporter values for a group of sequences are listed next.
Test system: K4 kissing-loop RNA reporter
method-summary: apparent KD of K4 kissing-loop reporter; higher = weaker reporter binding
measurement-context: Eterna round: R107; input ligand: FMN 200 uM
Report the value in nM with no unit label.

seq-string	result-type	measured-number
AAAAUAAACCAGUGAUGUUGGUGUCCAGAUACCAGCGAUAAUCAUCGCCCUUGGCAGCUGCGGACGUACAAAAUAAGUACGUCCU [MatMod 12 - Jieux - Same State - Theophylline A]	apparent KD of K4 kissing-loop reporter	665
AGUAGUUGGACGGCCGCCACUAGAACAGCUUUGCCAAAGGCAGAGCACUAGAGUGAUGUUCUAGCUAGGACCGGGUCCAACUACA [Omei KL Tryp B SS A v1]	apparent KD of K4 kissing-loop reporter	902
CGCCGUAAGGCGAGCGCUCCCACUCCGGAAGGAGCGCCCGGAAGGGCAGGUAGGUCGCCGGAGUGAUGUUCCGGUGGAGGGCUCG [#2 Exclusion - Arginine A Attempt #12 (Inspired by Omei)]	apparent KD of K4 kissing-loop reporter	229
AAAUUCUUUUUUUUAUUUAACUUUUCAGAAGGAGCGUGGUAGUUCACAGGUAGGUCGCUGAAUUUUGGACUAGUGAUGUUAGUUA [JR_SSArginiA_Sub006]	apparent KD of K4 kissing-loop reporter	148

API: the following record is the query input.
// recorded apparent KD of K4 kissing-loop reporter for AAGAGCUAGGCGGCCGCCACUAGUUGUGAACACAUACAAGCCAGUGAUGUUGGUAUGGUGGACGGUAGGACCGGGCCUAGCUGAA [Exclusion - Tryptophan B (Freestyle 16)] : 180

----------
Items are presented alongside their recorded apparent KD of K4 kissing-loop reporter.
Test system: K4 kissing-loop RNA reporter
method-summary: apparent KD of K4 kissing-loop reporter; higher = weaker reporter binding
measurement-context: Eterna round: R107; input ligand: FMN 200 uM

Past entries and their recorded results:
seq-string	apparent KD of K4 kissing-loop reporter
CGGAUGUAGUGAUGUUAUAUUAGAUGUAGACGAGGACCGGUACGGCCGCCACUCGAAACGGCUGCUAGCGCGUUGCGAGGUGUGC [ExTryptoA.Ck]	341 nM
AGGUCAGCAGGAAGGAGCGCCCUGACAGGUUGCUGCCGUGGGCAGUGAUGUUGCUCAGUCCGGCAGGUAGGUCGCCUGCUGACCU	204 nM
AUGGUUGUCGUAGGAUAUGUAGGAUAUUCCUAUAGCAGUGAUGUUGCUAAUAUCUUGGAAAGAAGGACAGAAGGACGAUAACCAC [KL-SSFMN-B2 #analogue]	114 nM
CCCUCACGAGUGAUGUUCGUAGGGUACAGUCAGGAUAUCAUGCGGUUGAGAAGGGACAGAAAGGGCGGCCACGGGUUGCUCAUUU [Issogeso]	200 nM
CUAGAAGUGAUGUUUCAUAGUAAAUCUGAUACCAGCAUUAAACCCUGCCCUUGGCAGCAGAAUGGGCUGAUAGACUCCUGCAGCU [theeternabot_sameState_KL_Theo_A_36]	220 nM
AUUAAUUUCAGAGGAUAUCGUUAUUUUUUAUAGUAUAUUCAAUUAUGCAGUGAUGUUGCUAUUAAUCGAGAAGGCUGAUUUAUAA [JR_ExcFMNB_Sub002]	179 nM

Recorded result, GGUCGGAGUGAUGUUCCGAGCUUCAGUCAUCGAGGACCGGUACGGCCGCCACUCGUCUACUAUGACGUAUCACCCUCCACGUGUU [theeternabot_sameState_KL_Trp_A_33] , apparent KD of K4 kissing-loop reporter: 150 nM

Memo: GUGAAGGAGCAGCAGUGAUGUUGCUGAGACUAGGAUAUCAGGAAACUGAGAAGGAGUCAACUCCUUCACCUAGACUGCAACAUAA [KL-SSFMN-A13] , reported apparent KD of K4 kissing-loop reporter: 173 nM

# apparent KD of K4 kissing-loop reporter of UGGCGAGUGAUGUUCGUUGUUGUAGUGUGUCGAGGACCGGUACGGCCGCCACUCGAGUUGGUUGUUGUUGUUGCUGUUGUUGCUG [#03 K4 Tryptophan A Same State] = 196 nM

Lab note: measured apparent KD of K4 kissing-loop reporter of GCCGUAGAUGGAAGGAGCGUGGUUAAUGUAAGUGAUGUUUACGAGGUUAACAAUUGACCGCCACAGGUAGGUCGCCAUCUACGGC was 84.6 nM

----------
System: MS2 coat protein
method-summary: apparent KD of MS2 coat protein; higher = weaker reporter binding
measurement-context: Eterna round: R107; input ligand: theophylline 20 uM
# label = label 1 if apparent KD of MS2 coat protein >= 50 nM else label 0

seq-string	cat
GAUAUAUAACGAAGGAGCGGCCCUUGAUCCUCAUGAGACAUGAGGAUCACCCAUGUCUCGGGCCAGGUAGGUCGCGUUAUAUAUC [Astros-omei-mod]	label 0
UGUAUGGACUGAAGGAGCGCCUCAAAAUAACAUGAGGAUCACCCAUGUAGGCGAAAGCCUGGGCAGGUAGGUCGCAGUCCAUACU [ArgBX 2 #StaticStem #MS2Late]	label 0
GCCAUCGGCGAAAGCCGAUGGUAUACAGAAGGAGCGCACGAAAGUGCAGGUAGGUCGCUGAACAUGAGGAUCACCCAUGUAAUAA [#29 Same State - Arginine A]	label 0
ACGUGGAAAAUUUGUGGUGCUGCCUCAGGCCGAGGACCGGUACGGCCGCCACUCGUACAUGAGGAUCACCCAUGUCGAGUCACUG [Isanso]	label 0
AUUGUCGCGUCGGCCGCCACUGUCAUGGUUUUCGUGGAACACAUGAGGAUCACCCAUGUAAUUGACAGGACCGGGACGUGGCGGC [Vevea]	label 0

Task item: Does the reported apparent KD of MS2 coat protein for CGCAACCCACAUGAGGAUCACCCAUGUGAAGGAGCGGCGAAUAAGCCAGGUAGGUCGCGCAUGAAUAAAUCAUGUAGGAAGCGAA [XArg-A 7 V1&2] fall at or above the 50 nM mark?
Reply: label 0

----------
Test system: K4 kissing-loop RNA reporter;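 also: bound reporter read as fluorescence of individual clusters on recovered sequencing chips by microscopy, with normalized cluster intensities fitted with a binding model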
method-summary: apparent KD of K4 kissing-loop reporter; higher = weaker reporter binding
measurement-context: Eterna round: R107; input ligand: theophylline 20 uM
The reader will find reported apparent KD of K4 kissing-loop reporter values listed item by item below.
The answer is to be given in nM; state only the numeric part.

Answered cases to consult:
seq-string	tested-on	apparent KD of K4 kissing-loop reporter, nM
GGUAGCAUGGCGGCCGCCACUGUUCGUGUUGCUAGCAGAUUCCAGUGAUGUUGGAAGCCUAGGUACAGGACCGGGCCAUGCUACC	K4 kissing-loop RNA reporter	102
GGGAGUAGUGCGGCCGCCACUGUGAAAGAAGAAGAAUAUAGUGAUGUUAUAUAGGAAUUAAAGAAUAGGACCGGGCAUUAGAUUU [SSTRyptB.Q]	K4 kissing-loop RNA reporter	311
UGAUAGGACAGAAGGAGCGGAGCUGGUCAAAGACCAGCAAUACGUUAAAUAGGAGUGAUGUUCCAGGUAGGUCGCUGUCCUAUCU [ArgBX 28 #SwitchBubble #StaticStem]	K4 kissing-loop RNA reporter	101
CGUACGGUUUCUUUCUUUCCGUACGAGUGCCGAGGACCGGUACGGCCGCCACUCGCUACAGCCUAGUGAUGUUAGGCAUUUCUUU	K4 kissing-loop RNA reporter	146

Continue with the next sequence.
apparent KD of K4 kissing-loop reporter for K4 kissing-loop RNA reporter with input AAUUUAUUAUCUGAUACCAGACUUUUUCUUGUUUAUAAGUCAAGUGAUGUUUGACUUUUAGUCCCUUGGCAGCAGUAUUUUUUAA [JR_Nu_SSTheophyB_Sub026] equals 113

----------
Tested on: MS2 coat protein
method-summary: apparent KD of MS2 coat protein; designed switch direction (-1 OFF switch, 1 ON switch): -1; higher = weaker reporter binding
measurement-context: input ligand: none
Let's look at some sequences and their measured apparent KD of MS2 coat protein.
The reply should contain only the number, in nM.

Guide cases for apparent KD of MS2 coat protein, answers given:
seq-string	tested-on	apparent KD of MS2 coat protein / nM
AGUGUGUGGCAGGAUAUGCGAUUUGUAAGUAUUGCAGAAGGGUCUACAUGAGGAUCACCCAUGUGUGCGGUUGA [Ex6 #25] (Eterna round: R97, puzzle: Exclusion 6)	MS2 coat protein	469
CUCGUGUAAGGAUAUAUGAGUCACGGAAAUAAACCGUGAAGAUAGAAGGUACAUGAGGAUCACCCAUGUAAAAC [Mod of Anonveat 4 - Jieux - Exclusion 4] (Eterna round: R97, puzzle: Exclusion 4)	MS2 coat protein	99.4

Let's switch to this sequence now.
Measured on MS2 coat protein, UCGAGUGGUUAGGAUAUCAUUGGUGCAUAUCAUUGAGAAGGAACUACAUGAGGAUCACCCAUGUGGCAGUGAUA [Abezaso] (Eterna round: R96, puzzle: Exclusion 6) has a documented apparent KD of MS2 coat protein of 31.9
